In this section, each of the molecules is paired with its reported LC retention time.
Assay: RP, Waters ACQUITY Premier BEH C18, 100 × 2.1 mm, 1.7 µm, 40 °C, 0.3 to 0.4 mL/min, estimated dead time 0.73 min; A: water + 0.1% formic acid; B: acetonitrile + 0.1% formic acid; gradient (min/%B) 0/0.5 0.1/0.5 10/80 10.1/99.5 12/0.5 12.1/0.5 14.5/0.5
Conditions: stereoisomer not certain

Study these solved cases before continuing.
1. O=C(O)C(O)c1ccc(O)c(O)c1 (stereo not given) [3,4 DIHYDROXYMANDELATE]    1.62 min
2. CCCCCCCCCCCCCC(=O)OC(CC(=O)[O-])C[N+](C)(C)C (stereo not given)    7.44 min
3. CC(=O)NC(CO)C(=O)O (stereo not given)    1.12 min
4. Nc1cc(O)cc(C(=O)O)c1 [3-AMINO-5-HYDROXYBENZOATE]    1.49 min

**Q:** Would you kindly share the measured LC retention time for NC1CCSC1=O (stereo not given) ?
**A:** 0.939 min

* * *

Assay: RP, Waters ACQUITY Premier BEH C18, 100 × 2.1 mm, 1.7 µm, 40 °C, 0.3 to 0.4 mL/min, estimated dead time 0.73 min; A: water + 0.1% formic acid; B: acetonitrile + 0.1% formic acid; gradient (min/%B) 0/0.5 0.1/0.5 10/80 10.1/99.5 12/0.5 12.1/0.5 14.5/0.5
Settings: stereoisomer not certain
Give 1 when the value for LC retention time is at least 4 min. Give -1 when it is less.

Examples from the recorded data:
1. C[Se]CCC(N)C(=O)O (stereo not given)    -1
2. O=C(O)/C=C/c1ccccc1 [TRANS-CINNAMATE]    1
3. O=c1c(O)c(-c2ccc(O)cc2O)oc2cc(O)cc(O)c12    1
4. CC(=O)NC(C)C(=O)O (stereo not given)    -1
5. OCC1OC(OCC2OC(OCC3OC(OC4(CO)OC(CO)C(O)C4O)C(O)C(O)C3O)C(O)C(O)C2O)C(O)C(O)C1O (stereo not given)    -1
6. O=c1ccn(C2OC(CO)C(O)C2O)c(=O)[nH]1 (stereo not given)    -1
7. O=C(O)CCCCCCCCCCCC(=O)O [1,11-UNDECANEDICARBOXYLATE]    1
8. CC(C)c1cc2c(c(O)c1O)C1(C(=O)O)CCCC(C)(C)C1CC2 (stereo not given)    1

Here's the next entry for you.
**Q:** Please tell me: is the molecule O=C(O)CCC(=O)C(=O)O [OXOGLUTARATE] at or over 4 min in terms of LC retention time?
**A:** -1

* * *

Assay: RP, Waters ACQUITY Premier BEH C18, 100 × 2.1 mm, 1.7 µm, 40 °C, 0.3 to 0.4 mL/min, estimated dead time 0.73 min; A: water + 0.1% formic acid; B: acetonitrile + 0.1% formic acid; gradient (min/%B) 0/0.5 0.1/0.5 10/80 10.1/99.5 12/0.5 12.1/0.5 14.5/0.5
Conditions: stereoisomer not certain
This section presents molecules with their documented LC retention time values.
Report the value in min with no unit label.

Some solved entries appear below for comparison.
1) COC(=O)C=Cc1ccccc1 [METHYL CINNAMATE]    7.95
2) OCC(O)c1ccc(O)c(O)c1 (stereo not given) [3,4-DIHYDROXYPHENYLGLYCOL]    1.86
3) CC(=O)NC(Cc1ccccc1)C(=O)O (stereo not given) [N-ACETYLPHENYLALANINE]    5.18
4) O=C(O)Cc1cc(O)ccc1O [HOMOGENTISATE]    3.66

Shifting focus to the molecule that follows.
**Q:** Which LC retention time is listed for C[N+](C)(C)CCCC(=O)[O-] [DEOXYCARNITINE] ?
**A:** 0.901
